target: beta-catenin/TCF4 engagement (Homo sapiens, UniProt P35222); construct: expressed in transfected cells; host or cells: HEK293; assay: Nano-BRET target engagement assay (B-cat-Halo & TCF4-Luc in HEK293 cells); assay type: cell-based; details: absolute IC50; read-out: NanoBRET Abs IC50
Answer each item with its documented IC50.
Include the unit after the number when you answer.

Measured IC50 of CC(=O)N1CCC[C@]12CC=CCCCC1(CCCC=CCCCOC(=O)N3CC[C@@](C(=O)N[C@@H](Cc4ccsc4)C(=O)N[C@@H](Cc4csc5ccccc45)C(=O)N[C@@H](CCC(N)=O)C(N)=O)(C3)NC(=O)[C@H](CC(N)=O)NC(=O)[C@H](Cc3ccccc3)NC(=O)[C@H](C)NC(=O)[C@H](C)NC(=O)[C@H](CC(=O)O)NC(=O)[C@H](CC(=O)O)NC1=O)NC(=O)[C@H](CC(C)(C)C)NC(=O)[C@H](CC(N)=O)NC2=O (some centres unmarked) : 17.3 µM

Recorded result, CC(=O)N1CCC[C@]12CC=CCCCC1(CCCC=CCCCOC(=O)N3CC[C@@](C(=O)N[C@@H](Cc4ccsc4)C(=O)N[C@@H](Cc4csc5ccccc45)C(=O)N[C@@H](CC(N)=O)C(N)=O)(C3)NC(=O)[C@H](CC(C)C)NC(=O)[C@H](Cc3ccccc3)NC(=O)[C@H](C)NC(=O)[C@H](C)NC(=O)[C@H](CN(CC(=O)O)CC(F)(F)F)NC(=O)[C@H](CC(=O)O)NC1=O)NC(=O)[C@H](CC(C)(C)C)NC(=O)[C@H](CC(=O)O)NC2=O (some centres unmarked) , IC50: 2.9 µM

====

Molecular target: full-length beta-Catenin (Uniprot ID P35222) (Homo sapiens, UniProt P35222)
Construct: 10 nM full-length beta-Catenin (Uniprot ID P35222)
Sequence (P35222 1-781): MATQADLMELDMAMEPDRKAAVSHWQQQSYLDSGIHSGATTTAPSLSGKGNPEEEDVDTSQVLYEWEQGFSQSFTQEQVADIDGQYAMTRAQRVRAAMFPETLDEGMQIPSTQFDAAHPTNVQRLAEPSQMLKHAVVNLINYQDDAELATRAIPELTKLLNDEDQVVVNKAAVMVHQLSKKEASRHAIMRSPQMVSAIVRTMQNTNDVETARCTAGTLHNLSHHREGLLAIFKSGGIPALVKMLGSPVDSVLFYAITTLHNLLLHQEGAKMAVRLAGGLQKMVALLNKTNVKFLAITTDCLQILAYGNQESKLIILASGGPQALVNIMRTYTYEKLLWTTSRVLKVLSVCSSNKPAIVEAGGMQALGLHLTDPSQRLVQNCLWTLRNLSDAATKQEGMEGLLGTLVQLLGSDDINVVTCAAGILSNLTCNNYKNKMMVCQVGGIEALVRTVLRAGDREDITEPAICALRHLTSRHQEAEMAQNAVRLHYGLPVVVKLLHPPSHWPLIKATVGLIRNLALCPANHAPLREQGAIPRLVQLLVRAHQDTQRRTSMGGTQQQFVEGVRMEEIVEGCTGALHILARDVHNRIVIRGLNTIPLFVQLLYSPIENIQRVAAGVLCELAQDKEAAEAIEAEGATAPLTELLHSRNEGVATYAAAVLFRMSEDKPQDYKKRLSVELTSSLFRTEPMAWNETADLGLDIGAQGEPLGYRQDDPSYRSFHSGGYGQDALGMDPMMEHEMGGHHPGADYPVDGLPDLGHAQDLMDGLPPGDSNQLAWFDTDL
Test: Fluorescence polarization IC50 (beta-catenin / 5FAM-TCF4 10-53 competition)
Format: binding
Conditions: fluorescence polarization; read-out: beta-Catenin FP IC50
pIC50: −log10 of the molar value.
If the reported pIC50 equals or exceeds 7, assign fulfilled. If not, assign not fulfilled.

Is reported pIC50 greater than or equal to 7 here: CC(=O)N1CCC[C@]12CCCCC1(CCCCCCCOC(=O)N3CC[C@@](C(=O)N[C@@H](Cc4ccsc4)C(=O)N[C@@H](Cc4csc5ccccc45)C(=O)N[C@@H](CCC(N)=O)C(N)=O)(C3)NC(=O)[C@H](CC(C)C)NC(=O)[C@H](Cc3ccccc3)NC(=O)[C@H](C)NC(=O)[C@H](C)NC(=O)[C@H](CC(=O)O)NC(=O)[C@H](CC(=O)O)NC1=O)NC(=O)[C@H](CC(C)(C)C)NC(=O)[C@H](CC(=O)O)NC2=O (some centres unmarked) [I-2161]
not fulfilled

Please indicate if the recorded pIC50 for CC(=O)N1CCC[C@]12CC=CCCCC1(CCCC=CCCCOC(=O)N3CC[C@@](C(=O)N[C@@H](Cc4ccsc4)C(=O)N[C@@H](Cc4csc5ccccc45)C(=O)N[C@@H](CCC(N)=O)C(N)=O)(C3)NC(=O)[C@H](CC(C)C)NC(=O)[C@H](Cc3ccccc3)NC(=O)[C@H](C)NC(=O)[C@H](C)NC(=O)[C@H](CN(CC(=O)O)C(=O)CN3CCN(C)CC3)NC(=O)[C@H](CC(=O)O)NC1=O)NC(=O)[C@H](CC(C)(C)C)NC(=O)[C@H](CC(=O)O)NC2=O (some centres unmarked) [I-2240] meets or exceeds 7.
fulfilled

Check the entry CC(=O)N1CCC[C@]12CC=CCCCC1(CCCC=CCCCCCC[C@@](C)(C(=O)N[C@@H](Cc3ccccc3)C(=O)N[C@@H](Cc3csc4ccccc34)C(=O)N[C@@H](CCC(N)=O)C(N)=O)NC(=O)[C@H](CC(N)=O)NC(=O)[C@H](Cc3ccccc3)NC(=O)[C@H](C)NC(=O)[C@H](C)NC(=O)[C@H](CC(=O)O)NC(=O)[C@H](Cc3nn[nH]n3)NC1=O)NC(=O)[C@H](C)NC(=O)[C@H](CC(=O)O)NC2=O (some centres unmarked) [I-445] : does pIC50 equal or exceed 7?
not fulfilled

Source: patent US20240116985A1
